Test: basal RPMI8226 mitochondrial membrane potential changes, profiling panel, cell-based, JC-1 fluorescence, 24 h, 100 nL compound (AID 1169); note: test concentration not given here
Settings: RPMI8226 myeloma, JC-1 mitochondrial potential fluorescence, higher = more signal
RECORDED_METRIC: z-score
Provide a numeric answer; units are not to be included.

Take a look at these entries with their results.
chemical_string=C[C@]1(C(=O)NCC(F)(F)F)c2ccccc2C(=O)N(Cc2ccccc2)[C@H]1c1ccc(CO)cc1 recorded_metric=z-score meas_value=0.824
chemical_string=CCOC(=O)C1=CC[C@@H](c2ccccc2)N(S(=O)(=O)c2ccc(C)cc2)[C@H]1C=Cc1ccccc1 recorded_metric=z-score meas_value=0.0754

Form: compound = C=C(COC)C(=O)CC[C@H](OC(=O)c1cccnc1)c1ccc(CO)o1 ; z-score = 0.541

Form: compound = [N-]=[N+]=NCc1ccccc1[C@H]1OC(c2ccc(OCCCO)cc2)=N[C@@]1(CCS(=O)(=O)c1ccccc1)C(=O)NCc1ccccc1 ; z-score = -1.02

Form: compound = O=C(O)[C@@H]1C[C@@H]2C(=O)N3CCC[C@H]3C(=O)N2[C@@H]1c1cccc(OCCO)c1 ; z-score = 0.817

---

Experiment: small-molecule microarray binders of probe aXIP, primary screen, biochemical, NeuroSMM set, 635/667 nm fluorescence (AID 1119);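 note: probe is the protein aXip251-270 applied at 1 µg/mL to compound-printed slides; binding of probe to printed compounds measured as 667 nm fluorescence plus signal to noise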
Conditions: higher = more signal, called active from +8 up or from −8 down
Cut-off 0.2 on composite Z-score, inclusive. At or above means Met; below means Not met.

A selection of reference data follows.
compound=O=C1O[C@H](c2ccccc2)[C@H](c2ccccc2)N2[C@H]1[C@@H](C(=O)O)[C@]1(C(=O)Nc3ccc(C#CC4(O)CCCCCC4)cc31)[C@H]2c1ccc(O)cc1 classification=Met
compound=NC(=O)[C@H]1[C@@H]2C(=O)O[C@@H](c3ccccc3)[C@@H](c3ccccc3)N2[C@@H](c2ccc(O)cc2)[C@]12C(=O)Nc1ccccc12 classification=Met
compound=O=C(N1CCOCC1)[C@@]1(CCS(=O)(=O)c2ccccc2)N=C(c2ccc(OCCCO)cc2)O[C@H]1c1ccccc1 classification=Met
compound=C=CCNC(=O)[C@@H]1[C@H]2C(=O)O[C@H](c3ccccc3)[C@H](c3ccccc3)N2[C@H](c2ccc(O)cc2)[C@@]12C(=O)N(C(=O)OCCOC)c1ccc(C#CCCO)cc12 classification=Met
compound="CN1C=C(C(=O)OCCS(C)(=O)=O)C(C(=O)OCCS(C)(=O)=O)=CC(c2ccc(CO)cc2)=CC1c1cccs1 (configuration not stated)" classification="Not met"

For the next question, use this compound.
Given the entry O=C(NCCN1CCOCC1)[C@@H]1c2ccccc2C(=O)N(Cc2ccccc2)[C@H]1c1ccc(CO)cc1 , answer whether its composite Z-score meets or surpasses 0.2.
Met

---

Test: basal 3T3-L1 adipocyte mitochondrial potential changes, profiling panel, cell-based, JC-1 fluorescence, 3T3-L1 adipocytes, 24 h, 100 nL compound (AID 1168); note: test concentration not given here
Details: JC-1 mitochondrial fluorescence, higher = more signal, called active from +8 up or from −8 down
In this section, each of the compounds is paired with its reported z-score.
Provide a numeric answer; units are not to be included.

Take a look at these entries with their results.
compound=COc1cc(CO)cc(I)c1O[C@H]1C=C(C(=O)NCCO)C[C@@H](NCC2CCCCC2)[C@@H]1O recorded_metric=z-score meas_value=-0.328
compound=C=C(CCCC)/C(=C/C[C@H](OC(C)=O)c1ccc(OCCO)cc1)c1cc(C(=O)OC)ccc1OC recorded_metric=z-score meas_value=0.151

Attention now shifts to the item below.
Form: compound = C=C(COC)C(=O)CC[C@H](OC(=O)c1cccnc1)c1ccc(CO)o1 ; z-score = -0.492

---

Test: RPMI8226 myeloma cell viability, profiling panel, resazurin fluorescence, basal, 24 h, PK04 Diversity Set (AID 1180);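 note: RPMI8826 multiple myeloma cell line at 5000 cells per well; test concentration not given here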
Details: higher = more signal
RECORDED_METRIC: z-score
Provide a numeric answer; units are not to be included.

Take a look at these entries with their results.
molecule=COc1ccc([Si](C)(C)[C@H]2[C@H](CCO)O[C@@]3(C(=O)N(Cc4ccc(N5C(=O)c6ccccc6Oc6ccccc65)cc4)c4ccccc43)[C@@H]2C)cc1 meas_value=-3.67
molecule=Cc1cccc([C@H]2C[C@H]3C(Br)=C[C@@H]2C(=O)[C@]32CO2)c1 meas_value=-0.332
molecule="COC(=O)C1N=C(c2ccc(OCCCO)cc2)N(c2ccccc2)O1 (stereo unspecified)" meas_value=1.22

Form: molecule = COC(=O)[C@@]1(Cc2ccccc2)[C@H]2c3cc(C(=O)N4CCCC4)n(CCSCCO)c3C[C@H]2CN1C(=O)c1ccccc1 ; z-score = -1.68

Form: molecule = COCCCNC(=O)[C@@]1(c2ccc([N+](=O)[O-])cc2)CC(=O)N(C(C)C)[C@@H]1c1ccc(CO)cc1 ; z-score = 1.24

Form: molecule = NC(=O)N1C(=O)C2C(C1=O)C1C=C(CCCO)C2C(C2CC2)N1Cc1cccc(OC(F)(F)F)c1 (stereo unspecified) ; z-score = -0.762

Form: molecule = NC(=O)[C@@H]1[C@H]2C(=O)O[C@H](c3ccccc3)[C@H](c3ccccc3)N2[C@H](c2ccc(OCCO)cc2)[C@@]12C(=O)Nc1ccc(C#CCCO)cc12 ; z-score = -0.83

---

Molecular target: Streptavidin (Streptomyces avidinii) (UniProt P22629)
Sequence (P22629 whole entry, looked up): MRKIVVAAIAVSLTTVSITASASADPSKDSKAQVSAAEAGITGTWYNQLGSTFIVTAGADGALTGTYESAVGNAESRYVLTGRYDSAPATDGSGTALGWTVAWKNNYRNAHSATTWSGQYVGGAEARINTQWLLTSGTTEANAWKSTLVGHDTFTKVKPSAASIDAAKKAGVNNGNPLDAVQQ
Experiment: streptavidin binders on small-molecule microarray, primary screen, artefact control for SMM compound annotation, biophysical, 635/667 nm fluorescence (AID 1147);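 note: signal reflects streptavidin binding to arrayed compounds as a control protein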
Details: streptavidin binding, higher = more signal
Cut-off 0.6 on composite z-score, inclusive. At or above means 1 (yes); below means 0 (no).

A selection of reference data follows.
compound=COC(=O)[C@@]1(Cc2ccc(OC)cc2)[C@H]2c3cc(C(=O)N4CCCC4)n(Cc4ccc(S(C)(=O)=O)cc4)c3C[C@H]2CN1C(=O)c1ccccc1 classification="1 (yes)"
compound="C=CCC(OC(C)=O)[C@@H]1[C@@H](N(Cc2ccc(-c3cccc(C(F)(F)F)c3)o2)C(=O)c2ccc(C)cc2)c2cc(OCCCO)ccc2N1C(=O)Cc1ccc(OC)cc1 (stereo partly specified)" classification="0 (no)"
compound=CCCCC(=C=CC[C@H](O)c1ccc(OCCO)cc1)C[C@H](O)COCc1ccccc1 classification="0 (no)"
compound=C=CCNC(=O)[C@H]1[C@@H]2C(=O)O[C@@H](c3ccccc3)[C@@H](c3ccccc3)N2[C@@H](c2ccc(O)cc2)[C@]12C(=O)N(C(=O)OCCOC)c1ccc(C#CCC(C(=O)OC)C(=O)OC)cc12 classification="1 (yes)"
compound=COc1ccc(C#Cc2ccc3c(c2)[C@]2(C(=O)N3)[C@H](C(=O)N3CCCCCCC3)[C@H]3C(=O)O[C@H](c4ccccc4)[C@H](c4ccccc4)N3[C@@H]2c2ccc(O)cc2)cc1 classification="1 (yes)"

For the next question, use this compound.
Given the entry CCOC(=O)C1=CCC(c2ccccc2)N(S(=O)(=O)c2ccc([N+](=O)[O-])cc2)C1 (stereo unspecified) , answer whether its composite z-score meets or surpasses 0.6.
0 (no)

---

In this section, each of the compounds is paired with its reported composite z-score.
System: glycogen synthase kinase-3 (GSK3A per assay name; protocol says GSK3B)
Assay: GSK3 binders on small-molecule microarrays, primary screen, biochemical, small-molecule microarray, 635 nm fluorescence, GSK3A (AID 1103); note: the record names both GSK3A and GSK3B
Conditions: small-molecule microarray binding, fluorescence 635 nm; higher = more signal
Provide a numeric answer; units are not to be included.

compound="CN1C=C(C(=O)OCCS(C)(=O)=O)C(C(=O)OCCS(C)(=O)=O)=CC(c2ccc(CO)cc2)=CC1c1cccs1 (stereo not given)" meas_value=0.499
compound=C=C(COC)C(=O)CC[C@@H](OC(=O)c1cccnc1)c1ccccc1OCCO meas_value=-0.0625
compound="Cc1ccc(C(C)CC(O)C2C=CC3C(=O)N(c4ccccc4)C(=O)C3N2Nc2ccc(C#N)cc2)o1 (stereo not given)" meas_value=1.08
compound=CN(C)C(=O)[C@]1(CCS(=O)(=O)c2ccccc2)N=C(c2ccc(OCCCO)cc2)O[C@@H]1c1ccccc1 meas_value=1.26
compound=CN(C)C(=O)[C@@]1(CCC(=O)OC(C)(C)C)N=C(c2ccc(OCCCO)cc2)O[C@H]1c1ccccc1CN=[N+]=[N-] meas_value=-0.416

Form: compound = COC(=O)[C@@]1(Cc2ccccc2)[C@H]2c3cc(C(=O)N4CCCC4)n(CCSCCO)c3C[C@H]2CN1C(=O)c1ccccc1 ; composite z-score = 0.954

Form: compound = COc1ccc(C#Cc2ccc3c(c2)[C@]2(C(=O)N3)[C@H](C(=O)Nc3nc4ccccc4s3)[C@H]3C(=O)O[C@H](c4ccccc4)[C@H](c4ccccc4)N3[C@@H]2c2ccccc2OCCO)cc1 ; composite z-score = 0.933

Form: compound = COC(=O)C1=CC(CCCO)=CC(c2ccc(CN3CCCC3)cc2)N(Cc2cc3c(cc2Br)OCO3)C=C1C(=O)OC (stereo not given) ; composite z-score = 0.636

Form: compound = O=C1NC(=O)C2C1C=CC(C(O)c1ccccn1)N2Nc1ccc(Cl)cc1Cl (stereo not given) ; composite z-score = -0.0767
